target: JAK3 (Homo sapiens); construct: The Ramos B-cell line was acquired from ATCC (ATCC Catalog No. CRL-1596); experiment: Assay for CD23 expression on Ramos B-cells stimulated by IL-4 (Table IV: ability to inhibit JAK3 activity); conditions: tested under conditions described in Example 3 (so in the source)
Counter-ions that a name gives are not always drawn.
reported-metric: IC50

Before answering, review these 3 worked examples.
Cc1cnc(Nc2cc(C)c(F)c(CO)c2)nc1Nc1ccc2oc(=O)[nH]c2c1 [Compound I-154]    < 500 nM
COc1cc(C)cc(Nc2ncc(F)c(Nc3cc(F)c4oc(=O)[nH]c4c3)n2)c1 [Compound I-179, trifluoroacetate salt]    > 10000 nM
Cc1cnc(Nc2ccc(C)c3c2COC3=O)nc1Nc1ccc2oc(=O)[nH]c2c1 [II-12]    < 500 nM

Lab note: next compound to report on.
// query IC50 value for entry O=C1NCC=Cc2cc(Nc3ncc(F)c(Nc4ccc5oc(=O)[nH]c5c4)n3)ccc21 [II-23, formate salt]
< 500 nM

---

Target: JAK3 (Homo sapiens, UniProt P52333)
Construct: The Ramos B-cell line was acquired from ATCC (ATCC Catalog No. CRL-1596)
Sequence (P52333 1-1124): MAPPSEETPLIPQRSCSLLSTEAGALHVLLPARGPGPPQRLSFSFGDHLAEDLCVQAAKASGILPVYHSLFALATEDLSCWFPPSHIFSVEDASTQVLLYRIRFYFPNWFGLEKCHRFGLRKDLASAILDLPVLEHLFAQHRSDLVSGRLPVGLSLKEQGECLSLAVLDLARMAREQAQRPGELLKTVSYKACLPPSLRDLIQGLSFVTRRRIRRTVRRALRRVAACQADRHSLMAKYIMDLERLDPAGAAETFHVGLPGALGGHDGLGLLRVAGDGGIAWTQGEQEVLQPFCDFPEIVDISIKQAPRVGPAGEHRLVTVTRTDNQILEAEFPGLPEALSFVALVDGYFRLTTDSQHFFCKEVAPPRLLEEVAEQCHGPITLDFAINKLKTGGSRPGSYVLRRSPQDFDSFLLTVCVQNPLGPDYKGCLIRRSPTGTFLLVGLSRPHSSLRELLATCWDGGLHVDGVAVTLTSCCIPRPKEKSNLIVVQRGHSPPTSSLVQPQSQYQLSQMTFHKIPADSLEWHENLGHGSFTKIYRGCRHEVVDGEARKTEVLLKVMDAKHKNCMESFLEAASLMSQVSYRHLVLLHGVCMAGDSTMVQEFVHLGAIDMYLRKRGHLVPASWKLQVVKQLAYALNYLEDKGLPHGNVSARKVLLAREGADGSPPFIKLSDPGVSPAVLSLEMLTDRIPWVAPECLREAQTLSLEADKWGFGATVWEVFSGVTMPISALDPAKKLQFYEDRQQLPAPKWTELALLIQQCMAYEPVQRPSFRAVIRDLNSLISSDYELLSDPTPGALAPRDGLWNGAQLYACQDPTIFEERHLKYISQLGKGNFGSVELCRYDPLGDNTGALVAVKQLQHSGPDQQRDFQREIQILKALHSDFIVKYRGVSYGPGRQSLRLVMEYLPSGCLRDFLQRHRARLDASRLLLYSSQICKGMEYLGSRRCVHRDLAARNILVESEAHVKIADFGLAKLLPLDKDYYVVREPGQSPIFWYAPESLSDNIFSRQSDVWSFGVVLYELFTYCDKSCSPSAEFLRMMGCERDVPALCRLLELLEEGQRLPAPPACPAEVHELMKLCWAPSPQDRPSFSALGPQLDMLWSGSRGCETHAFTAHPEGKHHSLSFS
Assay: Assay for CD23 expression on Ramos B-cells stimulated by IL-4 (Table IV: ability to inhibit JAK3 activity)
Details: tested under conditions described in Example 3 (so in the source)
pIC50: −log10 of the molar value. Where a name gives a salt, the structure may show the parent alone.
A collection of compounds and their measured pIC50

Before answering, review these 4 worked examples.
Cc1cnc(Nc2cc(C)c(C(=O)OCc3ccccc3)c(C)c2)nc1Nc1ccc2oc(=O)[nH]c2c1 [Compound I-141]    > 6.30
COc1cc(Nc2ncc(F)c(Nc3cc(F)c4oc(=O)[nH]c4c3)n2)cc(C)c1OC [Compound I-184, trifluoroacetate salt]    > 6.30
Cc1cnc(Nc2cc(C)c(C)c(C)c2)nc1Nc1cc(-c2ccc3c(c2)OCO3)c2oc(=O)[nH]c2c1 [Compound I-88]    < 5.00
Cc1cnc(Nc2ccc3c(c2)C(=O)OC3)nc1Nc1ccc2oc(=O)[nH]c2c1 [II-8]    > 6.30

// query pIC50 value for entry COCCOc1c(C)ccc(Nc2nccc(Nc3ccc4oc(=O)[nH]c4c3)n2)c1F [Compound I-62]
5.30 to 6.30

// query pIC50 value for entry COc1cc(Nc2ncc(Cl)c(Nc3ccc4oc(=O)[nH]c4c3)n2)ccc1C [Compound I-32, trifluoroacetate salt]
> 6.30

// query pIC50 value for entry Cc1cnc(Nc2cc(C)c(C(=O)O)c(C)c2)nc1Nc1ccc2oc(=O)[nH]c2c1 [Compound I-140]
5.30 to 6.30

// query pIC50 value for entry [2H]C([2H])([2H])c1c(C)cc(Nc2nccc(Nc3ccc4oc(=O)[nH]c4c3)n2)cc1C [Compound I-38, trifluoroacetate salt]
> 6.30
